Hello, the source for this data is the supplement of paper PMC10065799, in case you need it.

Tested on: AncSZ
TEST_METHOD_NOTES: phosphorylation enrichment, bacterial display (enrichment ratio); higher = better substrate or ligand; peptides without Tyr show the background;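 note: 11-residue human phosphosite peptides and single-mutation variants displayed on the E. coli surface, counted by deep sequencing, each peptide's frequency after selection divided by its frequency in the unselected input library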;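 note: frequency after pTyr selection over input frequency; kinase dosed for 20-30% of maximal phosphorylation in three min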
Classes based on phosphorylation enrichment: band A (below 0.7), band B (0.7 to below 1), band C (1 or more)

INSERT INTO measurements (sequence_content, answer_label) VALUES
  ('TSPKSCPSQKH [CAP2_Y316_Y316C]', 'band A'),
  ('NTGDDYDLFGG [PTPN11_Y63_Y62D_YF]', 'band C'),
  ('LHSEAYLKFIE [PBRM1_Y1610_YF]', 'band C'),
  ('VISNAYVDLSP [HSD17B4_Y602_A606S]', 'band C'),
  ('GGFSRYDEGSG [RECQL5_Y484_D480G]', 'band B'),
  ('VDGSVYKLHPS [GCK_Y413]', 'band A'),
  ('MPLTKYLKRIK [CNGB3_Y200_E199K]', 'band A'),
  ('SAPDSYIRIGN [SLC38A4_Y27_G29R]', 'band A'),
  ('NVTRKYTRQIL [MAP3K2_Y463]', 'band A'),
  ('RRIHSYRGHVW [VHL_Y112_L116V]', 'band C'),
  ('SEELHYYVQNH [UQCRC2_Y207_F208Y]', 'band C'),
  ('RYVTRHIYNRE [HLA-DQB1_Y62_Y62H]', 'band B'),
  ('PTKNDYWAMPA [WWOX_Y287_L291P]', 'band C'),
  ('SRFQFYFQQKG [CHKB_Y381]', 'band C'),
  ('PLDGEYFTPQI [TP53_Y327_L330P]', 'band C'),
  ('VRSNHYDPEED [TJP1_Y1346]', 'band C'),
  ('RPAPQYPHQVP [ADAM12_Y895]', 'band C'),
  ('IFGVSYDEFRF [CFTR_Y512_YF]', 'band C'),
  ('KTDKKYLMIEE [BAG3_Y451]', 'band B'),
  ('ITNLLYHVVGG [GBA_Y412_W417G]', 'band C'),
  ('SEDANYMRVSC [TTC3_Y1288_K1289M]', 'band C'),
  ('QNTGDDYDLYG [PTPN11_Y62_Y62D]', 'band C'),
  ('LLINKYGLSDH [SCP2_Y151_A155D]', 'band C'),
  ('CQLENYCNGGG [INS_Y108_Y103C]', 'band B'),
  ('GPKSTYISSAG [GOLGA5_Y62_A67G]', 'band A'),
  ('VTRAKYFIRDE [GNAS_Y339]', 'band A'),
  ('YGSSSYRGAGG [RPA2_Y14_G15R]', 'band A'),
  ('LPQDGYRIVQH [PTPRT_Y1329_R1324L]', 'band A'),
  ('DLVLQYLRVPL [F9_Y371_A366D]', 'band C'),
  ('DHAGTYGLGDR [MAPT_Y18]', 'band A'),
  ('AAALAYGLDKS [HSPA9_Y230]', 'band A'),
  ('KPGLKYVTFGN [GALNTL5_Y404_YF]', 'band A'),
  ('GFKVRYATGSI [FGFR1_Y210_W213G_YF]', 'band A'),
  ('REGAKYVSHCA [ASS1_Y113_G117C]', 'band B'),
  ('NAMRRYIEEFQ [MNS1_Y244]', 'band B'),
  ('KKHIPCREHKS [CSNK1G2_Y206_Y206C]', 'band C'),
  ('CHSDDYVHISI [TSC1_Y406_L411I]', 'band C'),
  ('TLEKYYFAFPG [SLC1A1_Y51_F50Y]', 'band C'),
  ('AAGGRYDGLLG [HARS2_Y364_V368L]', 'band A'),
  ('STTSDYQWDFS [MTDH_Y364_V368F]', 'band C'),
  ('NTGVYYDLYGG [PTPN11_Y63_D61V]', 'band C'),
  ('NAGDFYDLFGG [PTPN11_Y63_T59A_YF]', 'band C'),
  ('SLFNGYVYSGM [NEIL3_Y71_V76M]', 'band B'),
  ('AKQVGCENAGT [PC_Y304_Y304C]', 'band B'),
  ('KIVQDYLEKFF [MMP8_Y36_T32I_YF]', 'band C'),
  ('GIVEDYRPTFY [ACVRL1_Y421_P424T]', 'band B'),
  ('LQEQNYPAVDS [FAM114A1_Y115_L116P]', 'band C'),
  ('ANSPVYVPTTR [GATA6_Y188_S184N]', 'band A'),
  ('TDDMRYPMKSE [TGDS_Y302_N298D]', 'band B'),
  ('GEDLSYGDLPP [IRS1_Y151_V154L]', 'band C'),
  ('YTNELYMMMRD [FGFR1_Y730_C725Y]', 'band C'),
  ('EKLQKYYRKNP [EHHADH_Y682_Q685K]', 'band A'),
  ('NTGDDYDLYGG [PTPN11_Y63_Y62D]', 'band C'),
  ('TLARLYHPDST [LRIG1_Y1029]', 'band A');

====

TARGET_UNDER_TEST: MERTK (UniProt Q12866)
Sequence (Q12866 whole entry, looked up): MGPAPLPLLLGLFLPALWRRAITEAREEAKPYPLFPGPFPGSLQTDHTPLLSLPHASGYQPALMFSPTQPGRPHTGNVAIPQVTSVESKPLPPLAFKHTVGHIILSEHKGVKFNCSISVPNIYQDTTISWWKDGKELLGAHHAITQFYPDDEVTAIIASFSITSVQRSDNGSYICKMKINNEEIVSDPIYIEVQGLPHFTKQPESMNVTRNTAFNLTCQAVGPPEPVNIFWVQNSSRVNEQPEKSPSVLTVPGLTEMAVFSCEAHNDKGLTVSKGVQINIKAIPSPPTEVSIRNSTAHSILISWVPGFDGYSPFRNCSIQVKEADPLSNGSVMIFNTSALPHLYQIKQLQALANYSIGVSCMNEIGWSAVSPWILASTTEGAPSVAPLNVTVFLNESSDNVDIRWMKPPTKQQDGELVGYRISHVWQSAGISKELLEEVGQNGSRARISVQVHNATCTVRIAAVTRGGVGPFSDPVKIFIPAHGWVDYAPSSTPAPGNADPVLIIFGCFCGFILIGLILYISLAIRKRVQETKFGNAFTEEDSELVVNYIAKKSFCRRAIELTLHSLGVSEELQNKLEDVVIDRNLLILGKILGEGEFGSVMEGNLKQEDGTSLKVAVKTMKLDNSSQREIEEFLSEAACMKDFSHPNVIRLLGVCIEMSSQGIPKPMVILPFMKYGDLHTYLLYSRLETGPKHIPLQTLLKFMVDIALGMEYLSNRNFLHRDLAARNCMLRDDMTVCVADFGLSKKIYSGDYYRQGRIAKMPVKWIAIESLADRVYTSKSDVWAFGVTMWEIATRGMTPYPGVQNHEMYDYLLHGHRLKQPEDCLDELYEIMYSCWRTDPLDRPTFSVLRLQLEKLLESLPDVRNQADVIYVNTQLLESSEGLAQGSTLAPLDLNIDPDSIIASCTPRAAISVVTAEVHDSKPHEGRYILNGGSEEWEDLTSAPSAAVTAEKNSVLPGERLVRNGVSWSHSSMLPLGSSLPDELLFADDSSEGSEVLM
TEST_METHOD_NOTES: phosphorylation enrichment, bacterial display (enrichment ratio); higher = better substrate or ligand; peptides without Tyr show the background
MEASURED_ATTRIBUTE: phosphorylation enrichment

INSERT INTO measurements (sequence_content, quantitative_result) VALUES
  ('HLQDEYDFKCK [STAT1_Y170_D165H]', 0.884),
  ('ENEGTYVCIAA [ADAMTSL3_Y1365_T1370A]', 0.69),
  ('RKELFYKADGE [SERPINC1_Y272]', 0.659),
  ('KLSCSYSHWSA [C4BPA_Y470]', 0.527),
  ('PEADKYCLTYA [FGG_Y300_R301C]', 0.477),
  ('VDSAHYKLLET [DTX3L_Y385]', 0.419),
  ('LNPDGYKKAYE [CPXM2_Y427_E428K]', 0.734),
  ('CQLENYCNGGG [INS_Y108_Y103C]', 0.503),
  ('CGSLLYGLVHQ [PRKCG_Y122]', 7.41),
  ('KPGLIYNKVNP [SPRED3_Y72_V71I]', 1.07),
  ('EKRDAYVSRLN [GSR_Y150]', 0.397),
  ('AQESNYRLLRR [SLC20A2_Y377]', 0.406),
  ('KDQGIYEDYVE [MYL6_Y86_T85I]', 0.489),
  ('IDQDKYAVHFI [FLNA_Y2388_R2391H]', 0.388);

====

Known phosphorylation enrichment of a selection of sequences
TARGET_UNDER_TEST: FGFR3 (UniProt P22607)
Sequence (P22607 whole entry, looked up): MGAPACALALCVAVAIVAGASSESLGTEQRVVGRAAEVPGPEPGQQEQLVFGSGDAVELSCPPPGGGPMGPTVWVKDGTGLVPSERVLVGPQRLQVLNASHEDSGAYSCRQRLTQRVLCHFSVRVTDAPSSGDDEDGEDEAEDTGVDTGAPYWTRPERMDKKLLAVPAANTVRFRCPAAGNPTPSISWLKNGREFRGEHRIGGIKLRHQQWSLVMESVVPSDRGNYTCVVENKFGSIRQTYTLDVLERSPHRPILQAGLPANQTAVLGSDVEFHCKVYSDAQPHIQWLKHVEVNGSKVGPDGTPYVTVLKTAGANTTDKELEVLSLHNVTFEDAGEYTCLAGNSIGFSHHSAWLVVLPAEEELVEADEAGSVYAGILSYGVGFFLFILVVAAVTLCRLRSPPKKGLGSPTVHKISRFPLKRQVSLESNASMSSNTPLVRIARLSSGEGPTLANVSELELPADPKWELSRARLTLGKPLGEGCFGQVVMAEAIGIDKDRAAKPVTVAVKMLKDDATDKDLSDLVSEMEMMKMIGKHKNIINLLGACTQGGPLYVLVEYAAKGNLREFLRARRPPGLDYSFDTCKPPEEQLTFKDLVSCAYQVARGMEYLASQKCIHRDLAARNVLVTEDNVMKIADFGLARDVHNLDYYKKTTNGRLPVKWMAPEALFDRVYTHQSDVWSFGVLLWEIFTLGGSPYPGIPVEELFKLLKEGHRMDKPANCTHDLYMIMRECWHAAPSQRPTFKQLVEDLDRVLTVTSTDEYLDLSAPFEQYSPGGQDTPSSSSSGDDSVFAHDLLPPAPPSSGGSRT
TEST_METHOD_NOTES: phosphorylation enrichment, bacterial display (enrichment ratio); higher = better substrate or ligand; peptides without Tyr show the background
MEASURED_ATTRIBUTE: phosphorylation enrichment

INSERT INTO assay_data (sequence_content, quantitative_result) VALUES
  ('EKESCYILHSS [PATJ_Y783_E779K]', 0.77),
  ('RLTEGYTGPFK [ZNF862_Y181_I178T]', 0.456),
  ('SLESAYPEGSQ [TTF1_Y357]', 0.629),
  ('KRLAVYIDEEA [EPM2A_Y304_P301L]', 0.837),
  ('TDHLRYFDSNK [ARAP1_Y359]', 0.573),
  ('PPAPRCHHSAV [LZTR1_Y119_Y119C]', 1.21),
  ('PEADKYCLTYA [FGG_Y300_R301C]', 1.09),
  ('FDDIAYIQKTL [PIK3CA_Y1021_R1023Q]', 0.6),
  ('TFEYRYLEDRD [CNOT3_Y746]', 0.848),
  ('LRFDSYSSFCN [SLC20A2_Y433_YF]', 1.1),
  ('NPQKSYFIRLY [WAS_Y83]', 0.745),
  ('VEDHFYEGGIG [TKT_Y564_YF]', 0.875),
  ('VKANTYEKYWL [GATM_Y100_P105L]', 0.541),
  ('SSPQLYLVPFL [TAF4_Y652_P651L]', 2.11),
  ('VNCHQYDGLVG [ATP2A2_Y407_E412G]', 0.673),
  ('ILGLEYSLRVP [HELZ2_Y1304]', 0.637),
  ('AGTIPYHAHLD [ASS1_Y291_L290P]', 0.435),
  ('SGFESYGSSSY [RPA2_Y9]', 0.462),
  ('SLVVPYEPPEV [TP53_Y220_V216L]', 0.836),
  ('EKRDAYVSRLN [GSR_Y150]', 0.441),
  ('MRTMGYMPTEM [CABP5_Y62]', 0.538),
  ('KIVQDYLEKFF [MMP8_Y36_T32I_YF]', 0.808),
  ('IRKTEYPFSSE [ATP2C1_Y452_A450T]', 0.449),
  ('STKPQYQPGEN [SRC_Y530_E527K]', 0.412),
  ('SDYSSYARTSI [TERT_Y949]', 0.7),
  ('SSTAMYSAAGR [PSMB1_Y8_P11A]', 0.342),
  ('VATRWYRSPEL [CDKL5_Y177]', 0.518),
  ('GSERDYTFDEL [EIF2S2_Y174_E177D_YF]', 0.871),
  ('EDSEFYRAFEE [CASQ2_Y179_K180R_YF]', 0.848);
